# System: P. aeruginosa expressing IMP-1, efflux+ (MB9798)
# Type: cell-based, Pseudomonas aeruginosa
# conditions: ratio MITC95 PA_9798/MITC95 PA_9799
assay readout: Efflux ratio

Example entries and their recorded answers appear below.
{"molecule smiles": "C[C@@H](N)CS(=O)(=O)c1ccc(-c2cccc3[nH]c(N)nc23)c(-c2nn[nH]n2)c1S(N)(=O)=O", "study system": "P. aeruginosa expressing IMP-1, efflux+ (MB9798)", "readout value": 1.00}
{"molecule smiles": "Cc1nc2c(-c3ccc(S(=O)(=O)CCN)c(S(N)(=O)=O)c3-c3nn[nH]n3)cccc2[nH]1", "study system": "P. aeruginosa expressing IMP-1, efflux+ (MB9798)", "readout value": 1.00}
{"molecule smiles": "CS(=O)(=O)c1ccc(-c2cccc3cn[nH]c23)c(-c2nn[nH]n2)c1S(N)(=O)=O", "study system": "P. aeruginosa expressing IMP-1, efflux+ (MB9798)", "readout value": 15.99}

# context switch: different compound, same Efflux ratio
Task item: Item under review: NS(=O)(=O)c1c(S(=O)(=O)C2CNC2)ccc(-c2csc(N3CCCC3)n2)c1-c1nnn[nH]1.O=C(O)C(F)(F)F . Reported Efflux ratio?
Reply: 15.99

###

# study system: IMP-1 (Serratia marcescens)
# Sequence (P52699 whole entry, looked up, species assumed): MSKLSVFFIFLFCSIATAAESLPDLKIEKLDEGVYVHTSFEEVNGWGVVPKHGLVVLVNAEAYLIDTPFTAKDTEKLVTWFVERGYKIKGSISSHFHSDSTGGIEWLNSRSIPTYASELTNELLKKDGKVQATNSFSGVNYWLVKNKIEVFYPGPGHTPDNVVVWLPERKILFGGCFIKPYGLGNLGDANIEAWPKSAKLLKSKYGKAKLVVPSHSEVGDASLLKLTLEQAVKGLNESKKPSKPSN
# protocol text: biochemical
# Assay type: biochemical
# conditions: CCF2-FA substrate, 2 hours at 25° C; read-out: IMP-1 IC50
For each record, write down the corresponding IC50.
Give bare numbers, in pM.

Would you be so kind as to report IC50 for each listed record?
1. Nc1nc2c(-c3ccc(S(=O)(=O)C4CNC4)c(S(N)(=O)=O)c3-c3nn[nH]n3)ccc(F)c2[nH]1 [Example 251]
2. Nc1nc2c(-c3ccc(S(=O)(=O)[C@@H]4CN[C@H](CO)C4)c(S(N)(=O)=O)c3-c3nn[nH]n3)cccc2[nH]1 [Example 350]
3. NCCS(=O)(=O)c1ccc(-c2cncc3ccccc23)c(-c2nnn[nH]2)c1S(N)(=O)=O.O=C(O)C(F)(F)F [Example 148, 2,2,2-trifluoroacetate]
4. NCCS(=O)(=O)c1ccc(-c2ccnc(N)c2)c(-c2nnn[nH]2)c1S(N)(=O)=O.O=C(O)C(F)(F)F [Example 141, 2,2,2-trifluoroacetate]

Reply:
748
982
983
4890

###

For each record, write down the corresponding pIC50.
# study system: IMP-1 (Serratia marcescens)
# protocol text: biochemical
# Assay type: biochemical
# conditions: CCF2-FA substrate, 2 hours at 25° C; read-out: IMP-1 IC50
One number for each entry, as −log10 of the molar value.

{"compound": "COC(=O)CNC(=O)c1nc2c(-c3ccc(S(=O)(=O)C4CNC4)c(S(N)(=O)=O)c3-c3nn[nH]n3)cccc2[nH]1", "study system": "IMP-1 (Serratia marcescens)", "assay readout": "pIC50", "readout value": 9.00}
{"compound": "NS(=O)(=O)c1c(S(=O)(=O)C2CNC2)ccc(-c2ccc3nccnc3c2)c1-c1nnn[nH]1.O=C(O)C(F)(F)F [Example 117, 2,2,2-trifluoroacetate]", "study system": "IMP-1 (Serratia marcescens)", "assay readout": "pIC50", "readout value": 8.85}

# context switch: different compound, same pIC50
Task item: Item under review: NCCS(=O)(=O)c1ccc(-c2cccc3[nH]cnc23)c(-c2nn[nH]n2)c1S(N)(=O)=O . Reported pIC50?
Reply: 9.43

###

# study system: VIM-1 (Pseudomonas aeruginosa (strain ATCC 15692 / DSM 22644 / CIP 104116 / JCM 14847 / LMG 12228 / 1C / PRS 101 / PAO1))
# protocol text: biochemical
# conditions: CCF2-FA substrate, 2 hours at 25° C
assay readout: pIC50
One number for each entry, as −log10 of the molar value.

Example entries and their recorded answers appear below.
{"compound": "C[C@H](N)CS(=O)(=O)c1ccc(-c2cccc3c2nc(N)n3C)c(-c2nn[nH]n2)c1S(N)(=O)=O", "readout value": 9.67}
{"compound": "Nc1nc2c(-c3ccc(S(=O)(=O)CCO)c(S(N)(=O)=O)c3-c3nn[nH]n3)cccc2s1", "readout value": 9.14}
{"compound": "NS(=O)(=O)c1c(Sc2ccncc2)ccc(-c2ccc(C3CCNCC3)cc2)c1-c1nn[nH]n1", "readout value": 8.13}
{"compound": "Cc1nc2c(-c3ccc(S(=O)(=O)CCN)c(S(N)(=O)=O)c3-c3nn[nH]n3)cccc2[nH]1", "readout value": 9.74}

Would you be so kind as to report pIC50 for each listed record?
1. Nc1nc2c(-c3ccc(S(=O)(=O)c4ccccn4)c(S(N)(=O)=O)c3-c3nnn[nH]3)cccc2s1
2. NS(=O)(=O)c1c(S(=O)(=O)C2CNC2)ccc(C2=CC3C=NNC3N=C2)c1-c1nnn[nH]1.O=C(O)C(F)(F)F (stereo not drawn) [Example 108, 2,2,2-trifluoroacetate]
3. Nc1nc2c(-c3ccc(S(=O)(=O)[C@H]4C[C@H](N)C4)c(S(N)(=O)=O)c3-c3nn[nH]n3)cccc2s1

Reply:
1: 9.95; 2: 9.21; 3: 9.49

Would you be so kind as to report pIC50 for each listed record?
1. COC(=O)c1nc2c(-c3ccc(S(=O)(=O)C4CNC4)c(S(N)(=O)=O)c3-c3nn[nH]n3)cccc2[nH]1
2. NCCS(=O)(=O)c1ccc(-c2ccc3nc(N)oc3c2)c(-c2nn[nH]n2)c1S(N)(=O)=O

Reply:
1: 9.68; 2: 9.55

###

# Test system: P. aeruginosa expressing IMP-1, efflux+ (MB9798)
# Assay type: cell-based, Pseudomonas aeruginosa
# conditions: ratio MITC95 PA_9798/MITC95 PA_9799
Efflux ratio strictly less than 4 = criterion met. Otherwise criterion not met.

{"compound": "NCCS(=O)(=O)c1ccc(-c2ccc3nc(N)oc3c2)c(-c2nn[nH]n2)c1S(N)(=O)=O", "class": "criterion not met"}
{"compound": "C[C@H](N)CS(=O)(=O)c1ccc(-c2cccc3sc(N)nc23)c(-c2nn[nH]n2)c1S(N)(=O)=O", "class": "criterion met"}
{"compound": "NS(=O)(=O)c1c(S(=O)(=O)C2CNC2)ccc(-c2ccc3nccnc3c2)c1-c1nnn[nH]1.O=C(O)C(F)(F)F", "class": "criterion not met"}
{"compound": "CCCn1c(N)nc2c(-c3ccc(S(=O)(=O)C4CNC4)c(S(N)(=O)=O)c3-c3nn[nH]n3)cccc21", "class": "criterion not met"}
{"compound": "NCCS(=O)(=O)c1ccc(-c2cccc3sc(C(N)=O)nc23)c(-c2nn[nH]n2)c1S(N)(=O)=O", "class": "criterion met"}

Task item: Determine if CCCS(=O)(=O)c1ccc(C2=CCC(N)CC2)c(-c2nnn[nH]2)c1S(N)(=O)=O (stereo not shown) shows Efflux ratio strictly lower than 4.
Reply: criterion not met

Task item: Determine if Nc1nc2c(-c3ccc(S(=O)(=O)[C@H]4C[C@H](N)C4)c(S(N)(=O)=O)c3-c3nn[nH]n3)cccc2s1 shows Efflux ratio strictly lower than 4.
Reply: criterion met

Task item: Determine if Nc1nc2cc(F)cc(-c3ccc(S(=O)(=O)C4CNC4)c(S(N)(=O)=O)c3-c3nnn[nH]3)c2[nH]1 [Example 262] shows Efflux ratio strictly lower than 4.
Reply: criterion met

Task item: Determine if Nc1nc2cc(C(F)(F)F)cc(-c3ccc(S(=O)(=O)C4CNC4)c(S(N)(=O)=O)c3-c3nnn[nH]3)c2[nH]1 shows Efflux ratio strictly lower than 4.
Reply: criterion met

Task item: Determine if NC[C@H](CO)S(=O)(=O)c1ccc(-c2cccc3nc(N)[nH]c23)c(-c2nn[nH]n2)c1S(N)(=O)=O shows Efflux ratio strictly lower than 4.
Reply: criterion met

###

# study system: VIM-1 (Pseudomonas aeruginosa (strain ATCC 15692 / DSM 22644 / CIP 104116 / JCM 14847 / LMG 12228 / 1C / PRS 101 / PAO1), UniProt A0A0F7KYQ8)
# protocol text: biochemical
# conditions: CCF2-FA substrate, 2 hours at 25° C
assay readout: IC50
The number alone won't do; follow it with the unit.

Example entries and their recorded answers appear below.
{"compound": "Nc1cc2cccc(-c3ccc(S(=O)(=O)C4CNC4)c(S(N)(=O)=O)c3-c3nn[nH]n3)c2cn1 [Example 35]", "readout value": "0.243 nM"}
{"compound": "Nc1nc2c(-c3ccc(S(=O)(=O)C4CNC4)c(S(N)(=O)=O)c3-c3nn[nH]n3)ccc(C(=O)O)c2s1 [Example 38]", "readout value": "0.341 nM"}
{"compound": "NCCS(=O)(=O)c1ccc(C2CCNc3ccccc32)c(-c2nn[nH]n2)c1S(N)(=O)=O (centres unmarked) [Example 272]", "readout value": "0.64 nM"}

Would you be so kind as to report IC50 for each listed record?
1. Cc1ccc(-c2ccc(S(=O)(=O)CCN)c(S(N)(=O)=O)c2-c2nn[nH]n2)c2nc(N)[nH]c12 [Example 23]
2. NS(=O)(=O)c1c(S(=O)(=O)C2CCNCC2)ccc([C@H]2CC[C@@H](N)CC2)c1-c1nnn[nH]1 [Example 208]
3. NC[C@H](N)CS(=O)(=O)c1ccc(-c2cccc3[nH]c(N)nc23)c(-c2nnn[nH]2)c1S(N)(=O)=O [Example 293]
4. Nc1nc2cc(F)cc(-c3ccc(S(=O)(=O)C4CNC4)c(S(N)(=O)=O)c3-c3nnn[nH]3)c2[nH]1 [Example 262]
5. COC(=O)c1cccc(-c2ccc(S(=O)(=O)CCN)c(S(N)(=O)=O)c2-c2nn[nH]n2)c1N [Example 197]

Reply:
["0.0986 nM", "18.6 nM", "0.465 nM", "0.322 nM", "0.262 nM"]

Would you be so kind as to report IC50 for each listed record?
1. Nc1nc2cc(F)cc(-c3ccc(S(=O)(=O)C4CNC4)c(S(N)(=O)=O)c3-c3nnn[nH]3)c2[nH]1 [Example 296]
2. C[C@@H](CN)S(=O)(=O)c1ccc(-c2cccc3sc(N)nc23)c(-c2nn[nH]n2)c1S(N)(=O)=O [Example 286]
3. Cn1c(N)nc2c(-c3ccc(S(=O)(=O)CCCN)c(S(N)(=O)=O)c3-c3nn[nH]n3)cccc21 [Example 195]
4. NS(=O)(=O)c1c(S(=O)(=O)C2CNC2)ccc(C2=CCS(=O)(=O)CC2)c1-c1nn[nH]n1 [Example 218]
5. CCn1c(N)nc2c(-c3ccc(S(=O)(=O)C4CNC4)c(S(N)(=O)=O)c3-c3nn[nH]n3)cccc21 [Example 283]
6. Cn1ncc2cc(-c3ccc(S(=O)(=O)CCN)c(S(N)(=O)=O)c3-c3nnn[nH]3)ccc21.O=C(O)C(F)(F)F [Example 160, 2,2,2-trifluoroacetate]
7. NCCS(=O)(=O)c1ccc(-c2ccc3[nH]c(=O)oc3c2)c(-c2nnn[nH]2)c1S(N)(=O)=O.O=C(O)C(F)(F)F [Example 155, 2,2,2-trifluoroacetate]
8. C[C@H](CN)S(=O)(=O)c1ccc(-c2cccc3c2nc(N)n3C)c(-c2nn[nH]n2)c1S(N)(=O)=O [Example 279]

Reply:
1: 0.227 nM; 2: 0.265 nM; 3: 0.155 nM; 4: 2.23 nM; 5: 0.348 nM; 6: 0.375 nM; 7: 0.289 nM; 8: 0.47 nM
